- target under test: hPXR (Homo sapiens (Human), UniProt O75469)
- Sequence (O75469 whole entry): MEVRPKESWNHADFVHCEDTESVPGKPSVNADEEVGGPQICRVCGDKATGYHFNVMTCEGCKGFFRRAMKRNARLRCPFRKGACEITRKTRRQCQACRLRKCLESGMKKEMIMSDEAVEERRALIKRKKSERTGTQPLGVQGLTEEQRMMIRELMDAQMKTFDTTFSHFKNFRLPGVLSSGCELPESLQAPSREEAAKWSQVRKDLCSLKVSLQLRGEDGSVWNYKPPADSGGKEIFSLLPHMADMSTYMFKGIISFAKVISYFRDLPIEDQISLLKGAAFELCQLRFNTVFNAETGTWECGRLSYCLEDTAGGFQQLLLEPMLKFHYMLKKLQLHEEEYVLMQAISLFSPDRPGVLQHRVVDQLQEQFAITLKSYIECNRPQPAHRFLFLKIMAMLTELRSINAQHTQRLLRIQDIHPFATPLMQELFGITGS
- assay comment: cell-based hPXR inverse agonistic assay
pIC50: −log10 of the molar value.
endpoint name: pIC50

CCC[C@H](CC)Oc1ccc(C(C)(C)C)cc1NC(=O)c1nnn(-c2cc(OC)ccc2OC)c1C [M1] :: 8.96
CCC(C)Oc1ccc(C(C)(C)C)cc1NC(=O)c1nnn(-c2cc(OC)ccc2OC)c1C (stereo not shown) [B26] :: 8.43
COc1ccc(C)cc1-n1nnc(C(=O)Nc2ccc(OC)c(C(C)(C)C)c2)c1C [G3] :: 6.09

(P) COC(=O)c1ccc(NC(=O)c2nnn(-c3cc(OC)ccc3OC)c2C)cc1N1CCCC1 [A22]
(Q) CCCCNc1cc(NC(=O)c2nnn(-c3cc(Cl)ccc3OC)c2C)cc(C(C)(C)C)c1 [F3]
(R) COc1ccc(OC)c(-n2nnc(C(=O)Nc3cc(NCC(=O)O)cc(C(C)(C)C)c3)c2C)c1 [D9]
(S) COc1ccc(C)cc1-n1nnc(C(=O)Nc2ccc(O)c(C(C)(C)C)c2)c1C [G2]
(T) CCCCOc1cc(NC(=O)c2nnn(-c3cc(C)ccc3OC)c2C)cc(C(C)(C)C)c1 [G9]
List from greatest to least pIC50. Output spec: labels arranged per the requested ranking.
Q, T, S, R, P
(Q: 7.21, T: 6.82, S: 6.32, R: 5.77, P: 4.97)

(a) COc1ccc(C)cc1-n1nnc(C(=O)Nc2cc(C(C)(C)C)cc(C(C)(C)C)c2)c1C [G4]
(b) CCCCOc1cc(NC(=O)c2nnn(-c3cc(Cl)ccc3OC)c2C)cc(C(C)(C)C)c1 [F6]
Pick one: a or b . Which has the bigger pIC50 number? Could you answer with the label of the item you picked?
a

###

- target under test: UniProtKB O75469
- assay comment: cell-based hPXR antagonistic assay
- condition: read-out: Antagonist (% inhibition at 10 μM)
endpoint name: inhibition at 10 µM (%)

(P) COc1ccc(OC)c(-n2nnc(C(=O)Nc3cc(NCCN)cc(C(C)(C)C)c3)c2C)c1 [D10]
(Q) CCC[C@H](CC)Oc1ccc(C(C)(C)C)cc1NC(=O)c1nnn(-c2cc(OC)c(OC)cc2OC)c1C [M9]
Dear colleague, could you let me know whether P or Q has the lower recorded inhibition at 10 µM? Thanks. // output: label of the selected item
Q

###

- target under test: UniProt O75469
- assay comment: hPXR binding assay
- condition: read-out: Binding (IC50/μM); hPXR binding assay
endpoint name: IC50 (µM)

CCCCOc1ccc(C(C)(C)C)cc1NC(=O)c1nnn(-c2ccc(OC)cc2OC)c1C [H15] :: 0.44
COc1ccc(OC)c(-n2nnc(C(=O)Nc3cc(OCCCCCCCCI)cc(C(C)(C)C)c3)c2C)c1 [D21] :: 1.09
COc1ccc(OC)c(-n2nnc(C(=O)NS(=O)(=O)c3ccc(C(C)(C)C)cc3)c2C)c1 [K5] :: 10.7
COc1ccc(OC)c(-n2nnc(C(=O)Nc3cc(OCCCC(=O)O)cc(C(C)(C)C)c3)c2C)c1 [D30] :: 1.71
COc1ccc(C)cc1-n1nnc(C(=O)Nc2cc(C(C)(C)C)cc(C(C)(C)C)c2)c1C [G4] :: 0.1

(A) CCCC(CC)Oc1ccc(C(C)(C)C)cc1NC(=O)c1nnn(-c2cc(OC)ccc2OC)c1C (centres unmarked) [B34]
(B) COc1ccc(OC)c(-n2nnc(C(=O)Nc3cc(NCC(=O)OC(C)(C)C)cc(C(C)(C)C)c3)c2C)c1 [D8]
(C) CCCCOc1ccc(C(C)(C)C)cc1NC(=O)c1nnn(-c2cc(Br)ccc2OC)c1C [H2]
(D) COc1cc(NC(=O)c2nnn(-c3cc(C)ccc3OC)c2C)cc(C(C)(C)C)c1 [G8]
Please list these in order of increasing IC50. Thank you! Output spec: labels arranged per the requested ranking.
A, C, B, D
(A: 0.019 µM, C: 0.04 µM, B: 0.33 µM, D: 0.53 µM)

###

- target under test: hPXR (Homo sapiens (Human), UniProt O75469)
- assay comment: cell-based hPXR antagonistic assay
endpoint name: IC50 (µM)

(a) CCC[C@H](CC)Oc1ccc(C(=O)N2CCN(C(C)=O)CC2)cc1NC(=O)c1nnn(-c2cc(OC)ccc2OC)c1C [M7]
(b) COc1ccc(Cl)cc1-n1nnc(C(=O)Nc2cc(N)cc(C(C)(C)C)c2)c1C [F2]
(c) CCC[C@H](CC)Oc1ccccc1NC(=O)c1nnn(-c2cc(OC)ccc2OC)c1C [M3]
sort_by: IC50; order: ascending; scope: items listed above Output spec: labels arranged per the requested ranking.
c, a, b

###

- target under test: hPXR (Homo sapiens (Human))
- assay comment: cell-based hPXR inverse agonistic assay
- condition: read-out: Inverse agonist (% inhibition at 10 μM)
endpoint name: inhibition at 10 µM (%)

Previously resolved entries follow.
COc1ccc(OC)c(-n2nnc(C(=O)Nc3cc(C(C)(C)C)ccc3OCC(C)C)c2C)c1 [B32] :: 89
COc1ccc(OC)c(-n2nnc(C(=O)Nc3cc(N=C=S)cc(C(C)(C)C)c3)c2C)c1 [D11] :: 95

(I) COC(=O)CCCOc1cc(NC(=O)c2nnn(-c3cc(OC)ccc3OC)c2C)cc(C(C)(C)C)c1 [D29]
(II) COc1ccc(OC)c(-n2nnc(C(=O)Nc3cc(NC(=O)CCC(=O)O)cc(C(C)(C)C)c3)c2C)c1 [D6]
Kindly identify the item with the lower inhibition at 10 µM figure among these two: I and II Response format: the label of the selected entry.
II

###

- target under test: UniProt O75469
- assay comment: cell-based hPXR antagonistic assay
Quick list: IC50 per entry.

Sample answers from the record:
CCCCOc1ccc(C(C)(C)C)cc1NC(=O)c1nnn(-c2ccc(OC)cc2OC)c1C [H15] :: > 30 µM
COc1ccc(-n2nnc(C(=O)Nc3ccccc3)c2C)cc1 [E4] :: > 30 µM

Retrieve IC50 measured for COc1ccc(-n2nnc(C(=O)Nc3cccc(C)c3)c2C)cc1 [E8] and print it.
> 30 µM

###

- target under test: hPXR (Homo sapiens (Human), UniProt O75469)
- assay comment: cell-based hPXR inverse agonistic assay
- condition: read-out: Inverse agonist (% inhibition at 10 μM)
endpoint name: inhibition at 10 µM (%)

COc1ccc(OC)c(-n2nnc(C(=O)Nc3cc(OC(=O)c4nnn(-c5cc(OC)ccc5OC)c4C)cc(C(C)(C)C)c3)c2C)c1 :: 93
COc1ccc(OC)c(-n2nnc(C(=O)Nc3cc(N4C(=O)CCC4=O)cc(C(C)(C)C)c3)c2C)c1 :: 81
CCCCNc1cc(NC(=O)c2nnn(-c3cc(Cl)ccc3OC)c2C)cc(C(C)(C)C)c1 :: 89

###

- target under test: UniProtKB O75469
- assay comment: cell-based hPXR antagonistic assay
pIC50: −log10 of the molar value.
endpoint name: pIC50

COCCOCCOCCOCCOc1cc(NC(=O)c2nnn(-c3cc(OC)ccc3OC)c2C)cc(C(C)(C)C)c1 [D27] :: 5.67
CCC[C@H](CC)Oc1ccc(C(=O)Nc2ccc(N3CCN(C(C)=O)CC3)cc2)cc1NC(=O)c1nnn(-c2cc(OC)ccc2OC)c1C [M8] :: 6.72
CCC(CC)Oc1ccc(C(C)(C)C)cc1NC(=O)c1nnn(-c2cc(OC)ccc2OC)c1C [B31] :: 7.82
COc1ccc(OC)c(-n2nnc(C(=O)Nc3cc(NC(=O)CCC(=O)O)cc(C(C)(C)C)c3)c2C)c1 [D6] :: 4.66
CCC[C@H](CC)Oc1ccc(C(=O)N2CCN(C)CC2)cc1NC(=O)c1nnn(-c2cc(OC)ccc2OC)c1C [M6] :: 7.15

(P) CCC[C@H](CC)Oc1ccc(C(C)(C)C)cc1NC(=O)c1nnn(-c2cc(OC)ccc2OC)c1C [M1]
(Q) COc1ccc(OC)c(-n2nnc(C(=O)Nc3cc(OCCCCCCCC=O)cc(C(C)(C)C)c3)c2C)c1 [D26]
(R) CCCCNc1cc(NC(=O)c2nnn(-c3cc(Cl)ccc3OC)c2C)cc(C(C)(C)C)c1 [F3]
(S) CCCCOc1cc(NC(=O)c2nnn(-c3cc(C)ccc3OC)c2C)cc(C(C)(C)C)c1 [G9]
Please order the records by their reported pIC50, lowest number first. To answer, write out the labels according to the requested order.
Q, S, R, P
(Q: 5.89, S: 6.40, R: 6.68, P: 8.16)

(1) COc1ccc(OC)c(-n2nnc(C(=O)Nc3cc(C(C)(C)C)ccc3OCCCCN3CCN(C)CC3)c2C)c1 [B22]
(2) CCC[C@H](CC)Oc1ccc(C(C)(C)C)cc1NC(=O)c1nnn(-c2cc(Cl)c(Cl)cc2OC)c1C [M12]
(3) COc1ccc(OC)c(-n2nnc(C(=O)Nc3cc(C)ccc3OC)c2C)c1 [A25]
(4) COc1ccc(OC)c(-n2nnc(N(S(=O)(=O)c3ccc(C(C)(C)C)cc3)S(=O)(=O)c3ccc(C(C)(C)C)cc3)c2C)c1 [K8]
# sort list by recorded pIC50, greatest to least # list labels per requested ordering
2, 4, 1, 3

(A) CCCCCCCCOc1cc(NC(=O)c2nnn(-c3cc(OC)ccc3OC)c2C)cc(C(C)(C)C)c1 [D20]
(B) COc1ccc(OC)c(-n2nnc(C(=O)Nc3cc(NCC(=O)OC(C)(C)C)cc(C(C)(C)C)c3)c2C)c1 [D8]
# min-compare on pIC50 between A and B # reply format: chosen label
A
(A: 4.94, B: 6.34)

(1) COc1ccc(OC)c(-n2nnc(C(=O)Nc3cc(C(C)(C)C)ccc3OC(C)C)c2C)c1 [B12]
(2) CCC[C@H](CC)Oc1ccc(C(C)(C)C)cc1NC(=O)c1nnn(-c2cc(C)c(OC)cc2OC)c1C [M11]
Look at 1 and 2 . Which one has the lower recorded pIC50 number? # respond with the chosen item's label
2
(2: 4.19, 1: 7.31)
